// provenance: paper PMC12750388

# tested_on: UniProt:P14618
# Sequence (P14618 whole entry): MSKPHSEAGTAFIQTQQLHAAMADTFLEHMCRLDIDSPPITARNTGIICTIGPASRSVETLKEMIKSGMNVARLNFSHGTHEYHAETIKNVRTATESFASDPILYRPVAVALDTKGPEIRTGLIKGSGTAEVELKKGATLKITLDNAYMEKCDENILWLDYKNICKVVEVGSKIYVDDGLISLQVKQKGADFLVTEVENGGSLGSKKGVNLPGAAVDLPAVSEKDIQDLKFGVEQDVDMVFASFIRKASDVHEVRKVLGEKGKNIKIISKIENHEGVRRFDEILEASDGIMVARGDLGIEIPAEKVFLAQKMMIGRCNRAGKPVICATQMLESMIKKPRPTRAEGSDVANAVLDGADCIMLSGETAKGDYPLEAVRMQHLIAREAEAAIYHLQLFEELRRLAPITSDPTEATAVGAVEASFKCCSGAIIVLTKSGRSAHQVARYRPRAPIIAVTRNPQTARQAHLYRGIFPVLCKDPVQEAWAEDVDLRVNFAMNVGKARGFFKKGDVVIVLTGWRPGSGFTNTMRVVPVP
measurement_kind: IC50 (µM)
Give the number; µM is assumed, so skip it.

Could you share what IC50 was measured for O=C1C=C(OCc2cn(CCCOc3cc(=O)oc4ccccc34)nn2)C(=O)c2ccccc21 , tested on UniProt:P14618?
55.1

---

# System: Primary Gingival Fibroblast
# experimental_protocol: MTT cell viability assay, normal cells
# Assay type: cell-based, human
# conditions: MTT, 48 h, normal cells
measurement_kind: pIC50
Kindly note that pIC50 refers to -log10 of the concentration in mol/L and answer with the value alone.

// lookup pIC50 for N.N.O=C([O-])C1(C(=O)[O-])CCC1.[Pt+2] [Carboplatin, reference compound]
3.46
